assay system: UniProt Q9P1W9
test name: inhibition test on kinase PIM-2 (residual activity, IC50)
Format: biochemical
condition set: product at 10 μmol/L; Table 2; N.I. = not inhibitory; read-out: Percentage of residual activity PIM-2
observable: remaining activity at 10 µM (%)

Worked cases, remaining activity at 10 µM given:
> print(dat)
                            chemical.smiles  val
1     CCc1cccc2c1[nH]c1c2ccc2c(C=O)c[nH]c21   14
2  O=[N+]([O-])c1ccc2[nH]c3c(ccc4cc[nH]c43)c2c1   23
3  O=Cc1c[nH]c2c1ccc1c3cc(-c4ccccc4)ccc3[nH]c12   53
4        Brc1ccc2[nH]c3c(ccc4cc[nH]c43)c2c1   46

(1) Cc1ccc2c(c1)[nH]c1c2ccc2c(C=O)c[nH]c21
(2) Brc1ccc2c(c1)[nH]c1c2ccc2cc[nH]c21
(3) O=Cc1c[nH]c2c1ccc1c2[nH]c2cccc(Br)c21
Input line: Your job: order these 3 records by remaining activity at 10 µM, ascending. Reply format: the labels, ordered as requested.
Output line: 3, 1, 2

---

assay system: UniProt Q86V86
test name: inhibition test on kinase PIM-3 (residual activity, IC50)
Format: biochemical
condition set: product at 10 μmol/L; Table 2; N.I. = not inhibitory; read-out: Percentage of residual activity PIM-3
Source text: MKK1, ERK 1, ERK 2, JNK1, JNK2, JNK3, p38a MAPK, p38b MAPK, p38g MAPK, p38s MAPK, ERK8, RSK1, RSK2, PDK1, PKBa, PKBb, SGK1, S6K1, PKA, ROCK2, PRK2, PKCa, PKC zeta, PKD1, MSK1, MNK1, MNK2, MAPKAP-K2, MAPKAP-K3, PRAK, CAMKKa, CAMKKb, CAMK1, SmMLCK, PHK, CHK1, CHK2, GSK3b, CDK2/cyclin A, PLK1, PLK1 (Okadaic acid), Aurora B, Aurora C, AMPK, MARK3, BRSK2, MELK, CK1, CK2, NEK2a, NEK6, NEK7, IKKb, PIM-1, PIM-2, PIM-3, SRPK1, MST2, EF2K, HIPK2, HIPK3, PAK-4, PAK5, PAK6, Src, Lck, CSK. […]
observable: remaining activity at 10 µM (%)

Worked cases, remaining activity at 10 µM given:
> print(dat)
                                   compound    assay.system                   observable  measure.unit  val
1    Clc1cc(Cl)c2c(c1)[nH]c1c2ccc2cc[nH]c21  UniProt Q86V86  remaining activity at 10 µM             %   14
2  O=Cc1c[nH]c2c1ccc1c3cc(-c4ccc(-c5ccccc5)cc4)ccc3[nH]c12  UniProt Q86V86  remaining activity at 10 µM             %   48
3  O=C(c1c[nH]c2c1ccc1c3ccccc3[nH]c12)C(F)(F)F  UniProt Q86V86  remaining activity at 10 µM             %    7
4       N#Cc1ccc2[nH]c3c(ccc4cc[nH]c43)c2c1  UniProt Q86V86  remaining activity at 10 µM             %    4
5   CCN(CC)CCc1c[nH]c2c1ccc1c3ccccc3[nH]c12  UniProt Q86V86  remaining activity at 10 µM             %   25
6      NC(=O)c1c[nH]c2c1ccc1c3ccccc3[nH]c12  UniProt Q86V86  remaining activity at 10 µM             %    9

(P) O=Cc1c[nH]c2c1ccc1c3ccc(Br)cc3[nH]c12
(Q) CCc1cccc2c1[nH]c1c2ccc2cc[nH]c21
(R) O=Cc1c[nH]c2c1ccc1c3cc(-c4ccc(F)cc4F)ccc3[nH]c12
Input line: Your job: order these 3 records by remaining activity at 10 µM, ascending. Reply format: the labels, ordered as requested.
Output line: R, P, Q
(R: 6%, P: 15%, Q: 23%)

(1) O=Cc1c[nH]c2c1ccc1c3cc(-c4ccccc4)ccc3[nH]c12
(2) O=S(=O)(c1ccccc1)n1ccc2ccc3c4ccccc4[nH]c3c21
(3) Brc1cccc2c1[nH]c1c2ccc2cc[nH]c21
Input line: Your job: order these 3 records by remaining activity at 10 µM, ascending. Reply format: the labels, ordered as requested.
Output line: 1, 3, 2
(1: 15%, 3: 43%, 2: 64%)

---

assay system: PIM-2 (Homo sapiens (Human), UniProt Q9P1W9)
Sequence (Q9P1W9 whole entry, species assumed): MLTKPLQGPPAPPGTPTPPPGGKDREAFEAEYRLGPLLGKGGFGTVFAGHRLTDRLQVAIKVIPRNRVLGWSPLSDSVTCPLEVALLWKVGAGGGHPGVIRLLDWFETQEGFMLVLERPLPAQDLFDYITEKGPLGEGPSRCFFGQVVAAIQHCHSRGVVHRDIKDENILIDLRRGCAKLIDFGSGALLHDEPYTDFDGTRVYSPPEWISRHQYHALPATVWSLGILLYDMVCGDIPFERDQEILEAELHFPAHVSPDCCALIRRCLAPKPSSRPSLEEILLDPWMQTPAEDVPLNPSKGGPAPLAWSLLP
test name: inhibition test on kinase PIM-2 (residual activity, IC50)
Assay type: biochemical
condition set: product at 10 μmol/L; Table 2; N.I. = not inhibitory; read-out: Percentage of residual activity PIM-2
observable: remaining activity at 10 µM (%)

> print(dat)
                                   molecule  val
1  O=Cc1c[nH]c2c1ccc1c3ccc(Br)cc3[nH]c12 [Example 43]   39

(I) Fc1ccc2[nH]c3c(ccc4cc[nH]c43)c2c1 [Example 28]
(II) Brc1cccc2[nH]c3c(ccc4cc[nH]c43)c12 [Example 26]
(III) CCN(CC)CC(O)c1c[nH]c2c1ccc1c3ccccc3[nH]c12 (stereo not shown) [Example 12]
Input line: # sort list by recorded remaining activity at 10 µM, greatest to least Reply format: the labels, ordered as requested.
Output line: I, III, II
(I: 84%, III: 53%, II: 37%)

(a) O=Cc1c[nH]c2c1ccc1c3cc(Br)ccc3[nH]c12 [Example 16]
(b) O=Cc1c[nH]c2c1ccc1c2[nH]c2cc(Cl)cc(Cl)c21 [Example 48]
(c) CCc1cccc2c1[nH]c1c2ccc2cc[nH]c21 [Example 33]
Input line: Your job: order these 3 records by remaining activity at 10 µM, ascending. Reply format: the labels, ordered as requested.
Output line: b, a, c

(A) CCOC(=O)C(=O)c1c[nH]c2c1ccc1c3ccccc3[nH]c12 [Example 8]
(B) CCN(CC)C(=O)/C(=N\O)c1c[nH]c2c1ccc1c3ccccc3[nH]c12 [Example 13]
Input line: Looking at A and B , which one comes out lower in remaining activity at 10 µM terms? Identify your pick by its label.
Output line: B

(a) O=Cc1c[nH]c2c1ccc1c3cc(-c4ccc(F)cc4)ccc3[nH]c12 [Example 39]
(b) N#Cc1ccc2[nH]c3c(ccc4cc[nH]c43)c2c1 [Example 31]
Input line: Which has the higher remaining activity at 10 µM, a or b ? Identify your pick by its label.
Output line: a

---

assay system: UniProtKB Q86V86
observable: IC50 (nM)

> print(dat)
                            chemical.smiles  measure.unit  val
1  O=Cc1c[nH]c2c1ccc1c3cc(-c4ccc(F)cc4F)ccc3[nH]c12            nM  200

(1) O=C(c1c[nH]c2c1ccc1c3ccccc3[nH]c12)C(F)(F)F
(2) Brc1ccc2[nH]c3c(ccc4cc[nH]c43)c2c1
Input line: Which has the higher IC50, 1 or 2 ? Identify your pick by its label.
Output line: 2

---

assay system: PIM-1 (Homo sapiens (Human))
Sequence (P11309 whole entry, species assumed): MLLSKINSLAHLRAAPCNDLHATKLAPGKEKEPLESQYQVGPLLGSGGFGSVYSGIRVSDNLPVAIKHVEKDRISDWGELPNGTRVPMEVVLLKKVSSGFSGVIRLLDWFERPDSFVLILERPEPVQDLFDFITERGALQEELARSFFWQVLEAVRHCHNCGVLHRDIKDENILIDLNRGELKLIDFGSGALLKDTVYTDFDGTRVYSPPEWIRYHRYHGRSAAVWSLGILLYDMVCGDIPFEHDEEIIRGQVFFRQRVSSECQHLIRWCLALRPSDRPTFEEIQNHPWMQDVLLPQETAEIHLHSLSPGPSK
test name: inhibition test on kinase PIM-1 (residual activity, IC50)
Assay type: biochemical
condition set: product at 10 μmol/L; Table 2; N.I. = not inhibitory; read-out: Percentage of residual activity PIM-1
Text: MKK1, ERK 1, ERK 2, JNK1, JNK2, JNK3, p38a MAPK, p38b MAPK, p38g MAPK, p38s MAPK, ERK8, RSK1, RSK2, PDK1, PKBa, PKBb, SGK1, S6K1, PKA, ROCK2, PRK2, PKCa, PKC zeta, PKD1, MSK1, MNK1, MNK2, MAPKAP-K2, MAPKAP-K3, PRAK, CAMKKa, CAMKKb, CAMK1, SmMLCK, PHK, CHK1, CHK2, GSK3b, CDK2/cyclin A, PLK1, PLK1 (Okadaic acid), Aurora B, Aurora C, AMPK, MARK3, BRSK2, MELK, CK1, CK2, NEK2a, NEK6, NEK7, IKKb, PIM-1, PIM-2, PIM-3, SRPK1, MST2, EF2K, HIPK2, HIPK3, PAK-4, PAK5, PAK6, Src, Lck, CSK. […]
observable: remaining activity at 10 µM (%)

Worked cases, remaining activity at 10 µM given:
> print(dat)
                                   compound  val
1     O=Cc1c[nH]c2c1ccc1c3ccc(Br)cc3[nH]c12   44
2         Cc1ccc2c(c1)[nH]c1c2ccc2cc[nH]c21   81
3     O=Cc1c[nH]c2c1ccc1c3cc(Br)ccc3[nH]c12    6
4  O=Cc1c[nH]c2c1ccc1c2[nH]c2cc(Cl)cc(Cl)c21    8
5        Brc1cccc2[nH]c3c(ccc4cc[nH]c43)c12    8

(a) N#Cc1ccc2[nH]c3c(ccc4cc[nH]c43)c2c1
(b) CCc1cccc2c1[nH]c1c2ccc2cc[nH]c21
(c) Brc1ccc2c(c1)[nH]c1c2ccc2cc[nH]c21
Input line: # sort list by recorded remaining activity at 10 µM, greatest to least Reply format: the labels, ordered as requested.
Output line: c, b, a
(c: 74%, b: 28%, a: 9%)

(P) O=[N+]([O-])c1ccc2[nH]c3c(ccc4cc[nH]c43)c2c1
(Q) Fc1ccc2[nH]c3c(ccc4cc[nH]c43)c2c1
Input line: Looking at P and Q , which one comes out lower in remaining activity at 10 µM terms? Identify your pick by its label.
Output line: P
(P: 9%, Q: 35%)

(I) O=Cc1c[nH]c2c1ccc1c3cc(-c4ccc(-c5ccccc5)cc4)ccc3[nH]c12
(II) FC(F)(F)c1cccc2c1[nH]c1c2ccc2cc[nH]c21
(III) O=Cc1c[nH]c2c1ccc1c3cccc(Br)c3[nH]c12
(IV) O=Cc1c[nH]c2c1ccc1c3cc(-c4ccc(F)cc4F)ccc3[nH]c12
Input line: # sort list by recorded remaining activity at 10 µM, greatest to least Reply format: the labels, ordered as requested.
Output line: II, I, IV, III
(II: 85%, I: 39%, IV: 6%, III: 3%)

(I) O=Cc1c[nH]c2c1ccc1c3cc(-c4ccc(C(F)(F)F)cc4)ccc3[nH]c12
(II) CCOC(=O)C(=O)c1c[nH]c2c1ccc1c3ccccc3[nH]c12
Input line: Which has the higher remaining activity at 10 µM, I or II ? Identify your pick by its label.
Output line: II

These entries and their values trace back to patent US8481586B2.
